Tested on: DAPI
Assay: TAG lipid buildup inhibition with viability readout – cell-based, panel, Nile Red and DAPI fluorescence, H9c2, dose response (AID 651630);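 further: cells exposed to compound overnight before fixation and staining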
Details: H9c2 cells, DAPI nuclear fluorescence (cytotoxicity counter-readout), oleic acid, mean of runs
Activity calls are given as the source filed them.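 How the source made its calls: active means lipid-stain IC50 at or below a set limit, with nuclear-stain toxicity IC50 at least five times higher; inactive means the rest.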
measurementLabel: IC50 cytotoxicity (DAPI nuclear signal decrease)

Inquiry: So what does the record say about IC50 cytotoxicity (DAPI nuclear signal decrease) for Cc1cccc(Oc2nc(-c3ccccn3)nc3ccccc23)c1 ?
Reply text: > 25 µM (inactive)

Inquiry: // returns reported IC50 cytotoxicity (DAPI nuclear signal decrease) for input Cc1nn2c(N3CCCC3)cc(C(C)C)nc2c1-c1ccccc1
Reply text: > 25 µM (inactive)

Inquiry: Consider the compound COc1ccc(-c2cc(NC=O)c3ncc(-c4cc(OC)c(OC)c(OC)c4)n3c2)c(OC)c1 and give its measured IC50 cytotoxicity (DAPI nuclear signal decrease).
Reply text: > 25 µM (inactive)

====

Test system: DAPI
Assay: TAG lipid buildup inhibition with viability readout – cell-based, panel, Nile Red and DAPI fluorescence, H9c2, dose response (AID 651630);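 further: cells exposed to compound overnight before fixation and staining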
Settings: H9c2 cells, DAPI nuclear fluorescence (cytotoxicity counter-readout), oleic acid, run 2
measurementLabel: IC50 cytotoxicity (DAPI nuclear signal decrease)

Reference set, count: 5
[[record]]
compound = "CCCCSc1nc2ccc(Nc3nc(N4CCOCC4)nc(N4CCOCC4)n3)cc2s1"
reported = "> 25 µM"

[[record]]
compound = "Cc1ccc(C(=O)Nc2cc(C)c(OCC(=O)N3CCOCC3)c(C)c2)cc1"
reported = "> 25 µM"

[[record]]
compound = "CC1(C(=O)NCc2ccco2)Cc2c(-c3cccc(C(F)(F)F)c3)ccnc2O1 (centres undefined)"
reported = "> 25 µM"

[[record]]
compound = "CN(C)C(=O)c1cccc(-c2cnc3c(NC=O)cc(-c4ccc(C(=O)N5CCOCC5)cc4)cn23)c1"
reported = "> 25 µM"

[[record]]
compound = "COCCNC(=O)c1cc2c(-c3ccc(Cl)cc3)nn(C)c2s1"
reported = "> 25 µM"


For the next question, use this compound.
Inquiry: # input compound: Cc1cccc2cc(C#N)c(SCC(=O)NNC(=O)Cc3ccccc3)nc12 ; wanted: its IC50 cytotoxicity (DAPI nuclear signal decrease)
Reply text: > 25 µM

====

Test system: TAG
Assay: TAG lipid buildup inhibition with viability readout – cell-based, panel, Nile Red and DAPI fluorescence, H9c2, dose response (AID 651630);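 further: cells exposed to compound overnight before fixation and staining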
Conditions: H9c2 cells, Nile Red TAG fluorescence, oleic acid, mean of runs
The source made the active and inactive calls.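 How the source made its calls: active means lipid-stain IC50 at or below a set limit, with nuclear-stain toxicity IC50 at least five times higher; inactive means the rest.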
Hi there, use one of these labels in your reply, thanks! active, inactive

Please review the entries below; each comes with its answer.
[[record]]
compound = "CC(C)c1ccc(Nc2nc(N3CCOCC3)nc(N3CCOCC3)n2)cc1"
systemname = "TAG"
label = "active"

[[record]]
compound = "COc1ccc(NC(=O)C2(C)Cc3c(-c4ccc5c(c4)OCO5)ccnc3O2)cn1 (configuration not stated)"
systemname = "TAG"
label = "inactive"

[[record]]
compound = "N#C/C(=C\\c1cc([N+](=O)[O-])c(N2CCCCC2)cc1N1CCCCC1)c1nn(-c2ccccc2)c(N)c1C#N"
systemname = "TAG"
label = "inactive"


Inquiry: Please let me know the test result on file for COc1ccc(NC(=O)C2(C)Cc3c(-c4cccc(NC(C)=O)c4)ccnc3O2)cn1 (configuration not stated) .
Reply text: inactive

Inquiry: What call does the record list for O=C(Nc1ccc(/C=C/c2nc3ccccc3o2)cc1)c1c(F)cccc1F ?
Reply text: active
